B1: glmS ribozyme (parent)
chain: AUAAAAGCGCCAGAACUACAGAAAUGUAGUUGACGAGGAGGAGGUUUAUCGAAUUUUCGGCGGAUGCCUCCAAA

Variants of: B1
Method Summary: self-cleavage kobs at 10000 uM GlcN6P; higher = faster cleavage; RNA array
Test Settings: with glucosamine-6-phosphate
Fewer inactive variants are shown than the library holds.
Each record here notes measured self-cleavage kobs at 10000 uM GlcN6P.
State just the number; it will be interpreted in s⁻¹.

A15G U56C = 0.00354
A52U A53G = 0.000111

input: Find the measured self-cleavage kobs at 10000 uM GlcN6P of G35C G37A C68G and report it.
output: 4.58e-05

input: Find the measured self-cleavage kobs at 10000 uM GlcN6P of G44C U46A and report it.
output: 7.15e-05

input: Find the measured self-cleavage kobs at 10000 uM GlcN6P of G29C G40A A42G and report it.
output: 8.98e-05
